- Tested on: stomach ulcer
- assay info: Gastrointestinal ulcerogenicity
- Assay type: in vivo, Male Wistar rats
- test context: 64 mg/kg p.o., after 6 hours
endpoint: Number of rats having a score of stomach ulcer of 2 or more/total number of rats used

Here is how some molecules turned out for Number of rats having a score of stomach ulcer of 2 or more/total number of rats used.
> print(dat)
                                   molecule  result
1  CCOC(=O)C(C)c1ccc2c(c1)SCC1CCCCC1C2=O (stereo not drawn)     3/6
2  CC(C(=O)O)c1ccc2c(c1)SCC1CCCCC1C2=O (stereo not drawn)     6/9

Moving on to the next molecule.
**Query** For the molecule shown here, CC(C(=O)OCCc1ccccc1)c1ccc2c(c1)SCC1CCCCC1C2=O (stereo not drawn) , give the reported Number of rats having a score of stomach ulcer of 2 or more/total number of rats used.
**Result** 0/6

###

- Tested on: stomach ulcer
- assay info: Gastrointestinal ulcerogenicity
- Assay type: in vivo, Male Wistar rats
- test context: 32 mg/kg p.o., after 6 hours
- Description: Gastrointestinal ulcerogenicity The test was carried out in a similar manner as disclosed in Arzneim. Forsch., 19, 36 (1969). Male Wistar rats, weighing 130-180 g, were used. After the rats were fasted for 24 hours, the test compound was orally administered one time. After 6 hours, the rats were killed and the stomach was removed. […] The degree of stomach ulcer was scored from 1 to 4, wherein 4 is the most severe ulcer. […]
endpoint: Number of rats having a score of stomach ulcer of 2 or more/total number of rats used

Worked examples follow.
> print(dat)
                                   compound    system.name  result
1  CC(C(=O)O)c1ccc2c(c1)SCC1CCCCC1C2=O (stereo not drawn) [H]  stomach ulcer     2/3
2  CC(C(=O)OCCc1ccccn1)c1ccc2c(c1)SCC1CCCCC1C2=O (stereo not drawn)  stomach ulcer     0/6

Lab note: next compound to report on.
**Query** Give Number of rats having a score of stomach ulcer of 2 or more/total number of rats used (stomach ulcer) of the following compound: CC(C(=O)OCc1ccccn1)c1ccc2c(c1)SCC1CCCCC1C2=O (stereo not drawn)
**Result** 2/6
